# key: entry, value: IC50
SYSTEM TESTED: endogenous CETP from serum (Homo sapiens, UniProt P11597)
Construct: yielding a concentration of approximately 15 nM endogenous CETP in the assay; from tissue; host or cells: human serum
Sequence (P11597 18-493): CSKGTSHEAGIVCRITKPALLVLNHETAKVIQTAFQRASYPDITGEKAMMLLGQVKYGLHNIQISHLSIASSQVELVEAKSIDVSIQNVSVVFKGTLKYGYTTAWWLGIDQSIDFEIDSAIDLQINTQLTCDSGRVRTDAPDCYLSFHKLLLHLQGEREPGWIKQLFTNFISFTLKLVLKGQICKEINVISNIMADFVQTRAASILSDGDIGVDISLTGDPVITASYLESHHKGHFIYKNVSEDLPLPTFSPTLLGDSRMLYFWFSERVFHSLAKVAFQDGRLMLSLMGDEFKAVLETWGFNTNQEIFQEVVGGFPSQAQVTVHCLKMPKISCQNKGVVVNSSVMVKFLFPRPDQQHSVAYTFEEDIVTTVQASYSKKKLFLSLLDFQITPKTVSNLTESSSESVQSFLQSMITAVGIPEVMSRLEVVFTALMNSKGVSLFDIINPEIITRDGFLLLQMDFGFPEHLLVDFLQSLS
TEST: RTA assay in 95% human serum (in vitro radioactive assay of CETP-catalyzed CE and TG transfer)
Type: biochemical
SETUP CONDITIONS: Table 1; data generally obtained using the RTA assay in 95% human serum; read-out: IC50
Give me the value, and tack the unit on after it.

Please review the following examples before continuing.
COc1ncc(-c2ccc(C(=O)O)cc2C)cc1-c1ccc(C(F)(F)F)cc1[C@@H]1CC[C@H]2[C@@H](c3cc(C(F)(F)F)cc(C(F)(F)F)c3)N(C)C(=O)N12 | 1.5 µM
COc1ccc(-c2cccnc2C)cc1-c1ccc(C(F)(F)F)cc1[C@@H]1CC[C@H]2[C@@H](c3cc(C(F)(F)F)cc(C(F)(F)F)c3)NC(=O)N12 | 0.795 µM
COc1ccc(-c2ccc(C(=O)O)nc2C)cc1-c1ccc(C(F)(F)F)cc1[C@@H]1CC[C@H]2[C@@H](c3cc(C(F)(F)F)cc(C(F)(F)F)c3)NC(=O)N12 | 1.93 µM
COc1ccc(-c2ccc(C(=O)O)cc2C)cc1-c1ccc(C(F)(F)F)cc1[C@@H]1CC[C@H]2[C@@H](c3cc(C(F)(F)F)cc(C(F)(F)F)c3)NS(=O)(=O)N12 | 0.984 µM
COc1ccc(-c2ccc(C(=O)O)cc2C)cc1-c1ccc(C(F)(F)F)cc1[C@@H]1CC[C@H]2[C@@H](c3cc(C(F)(F)F)cc(C(F)(F)F)c3)NC(=O)N12 | 1.36 µM
COc1ccc(CCC(=O)O)cc1-c1ccc(C(F)(F)F)cc1[C@@H]1CC[C@H]2[C@@H](c3cc(C(F)(F)F)cc(C(F)(F)F)c3)N(C)C(=O)N12 | 2.95 µM
COc1ccc([C@H]2[C@H](C)C(=O)N[C@@H]2C)cc1-c1ccc(C(F)(F)F)cc1[C@@H]1CC[C@H]2[C@@H](c3cc(C(F)(F)F)cc(C(F)(F)F)c3)NC(=O)N12 | 1.74 µM
COc1ccc(-c2ccc(C(=O)O)cc2C)cc1-c1ccc(C(F)(F)F)cc1[C@@H]1CC[C@H]2[C@@H](c3cc(C(F)(F)F)cc(C(F)(F)F)c3)N(C)C(=O)N12 | 1.42 µM
COc1cc(F)c(C(C)C)cc1-c1ccc(C(F)(F)F)cc1[C@@H]1CC[C@H]2[C@@H](c3cc(F)cc(C(F)(F)F)c3)NC(=O)N12 | 1.07 µM
COc1ccc(-c2ccc(C(=O)O)cc2C)cc1-c1cnc(C(F)(F)F)cc1[C@@H]1CC[C@H]2[C@@H](c3cc(C(F)(F)F)cc(C(F)(F)F)c3)NC(=O)N12 | 1.57 µM

// lookup IC50 | system=endogenous CETP from serum (Homo sapiens, UniProt P11597) | key= `COc1ncc(-c2c(C)cc(C(=O)O)cc2C)cc1-c1ccc(C(F)(F)F)cc1[C@@H]1CC[C@H]2[C@@H](c3cc(C(F)(F)F)cc(C(F)(F)F)c3)NC(=O)N12` 0.392 µM

Can you check `COc1ncc(-c2ccc(C(=O)O)cc2C)cc1-c1ccc(C(F)(F)F)cc1[C@@H]1CC[C@H]2[C@@H](c3cc(F)cc(C(F)(F)F)c3)NS(=O)(=O)N12` next? 1.26 µM
